# Test system: thrombocyte aggregation in platelet-rich plasma of healthy human donors
# Protocol Text: Thrombocyte aggregation inhibiting activity by the method of Born and Cross (platelet-rich plasma)
# Type: cell-based
# Condition Details: ADP-induced (about 1×10^-6 mol/l), optical density, read-out: EC50 (50% inhibition of thrombocyte aggregation), ADP
Property Name: EC50 (µM)
Reply numerically in µM, unit not repeated.

Past entries and their recorded results:
[[record]]
compound = "O=C1CCc2cc(OCCCCS(=O)(=O)c3ccc(Cl)c(Cl)c3)ccc2N1 [R]"
property_name = "EC50"
reading_unit = "µM"
reported_result = 25

[[record]]
compound = "O=C1CCc2cc(OCCCC[S+]([O-])c3ccc(Cl)c(Cl)c3)ccc2N1 (centres unmarked) [U]"
property_name = "EC50"
reading_unit = "µM"
reported_result = 15

[[record]]
compound = "O=c1ccc2cc(OCCCCS(=O)(=O)c3ccccn3)ccc2[nH]1 [T]"
property_name = "EC50"
reading_unit = "µM"
reported_result = 6


-- ask Under thrombocyte aggregation in platelet-rich plasma of healthy human donors, report EC50 for O=C1CCc2cc(OCCCC[S+]([O-])c3ccccc3)ccc2N1 (centres unmarked) [B]
-- reply 20

-- ask Quote EC50 with test system thrombocyte aggregation in platelet-rich plasma of healthy human donors for O=C1CCc2cc(OCCCCS(=O)(=O)c3ccccc3)ccc2N1 [Compound C]
-- reply 15

-- ask Report measured EC50 on thrombocyte aggregation in platelet-rich plasma of healthy human donors; entry: Cc1cc(=O)[nH]c2ccc(OCCCC[S+]([O-])c3ccccc3)cc12 (centres unmarked) [Q]
-- reply 40

* * *

# Test system: phosphodiesterase (PDE), supernatant of human blood platelets
# Protocol Text: PDE inhibition (3H-cAMP hydrolysis)
# Format: biochemical
# Condition Details: human blood platelet PDE, 1 μmol/liter 3H-cAMP, pH 7.4, 15 minutes, 37° C.
# Description: cAMP is hydrolysed to AMP by phosphodiesterase (PDE) from various sources, including blood platelets. This hydrolysis is inhibited by PDE inhibitors according to the concentration. […] The incubation was stopped by the addition of 0.5 ml of zinc sulfate (0.266 mole/liter) and 0.5 ml of barium hydroxide (0.266 mole/liter), the precipitate was centrifuged and the activity remaining in the supernatant of the unreacted ^3 H-cAMP was determined. […]
Entries and their pIC50
pIC50 (log units): -log10 of the concentration in mol/L.

[[record]]
compound = "O=C1CCc2cc(OCCCC[S+]([O-])c3ccc(Cl)cc3)ccc2N1 (centres unmarked)"
reported_result = 6.10

[[record]]
compound = "O=C1CCc2cc(OCCCC[S+]([O-])C3CCCCC3)ccc2N1 (centres unmarked)"
reported_result = 5.60

[[record]]
compound = "O=c1ccc2cc(OCCCCS(=O)(=O)c3ccccn3)ccc2[nH]1"
reported_result = 6.00

[[record]]
compound = "O=C1CCc2cc(OCCCCS(=O)(=O)c3ccccn3)ccc2N1"
reported_result = 5.42


Now consider the entry below.
-- ask Answer with the recorded pIC50 of Nc1c(Br)cc([S+]([O-])CCCCOc2ccc3c(c2)CCC(=O)N3)cc1Br (centres unmarked) only.
-- reply 6.60

* * *

Quick list: change in vivo at 10 mg/kg per entry.
# Tested on: conscious mice
# Protocol Text: Prolongation of the bleeding time (mouse tail)
# Assay type: in vivo
# Condition Details: po, 10 mg/kg orally, after 1 hour, compared to control group, read-out: Prolongation of the bleeding time in % after one hour
Express it in %; write the number only.

[[record]]
molecule = "O=C1CCc2cc(OCCCCS(=O)(=O)c3ccccc3)ccc2N1"
system_under_test = "conscious mice"
reading_unit = "%"
reported_result = 26


-- ask Specify reported change in vivo at 10 mg/kg for the molecule shown: O=C1CCc2cc(OCC[S+]([O-])c3ccccc3)ccc2N1 (centres unmarked)
-- reply 5

-- ask Recall and state the measured change in vivo at 10 mg/kg for O=C1CCc2cc(OCCCC[S+]([O-])Cc3ccccc3)ccc2N1 (centres unmarked) .
-- reply 29

-- ask Answer with the recorded change in vivo at 10 mg/kg for the molecule listed here: COc1ccccc1[S+]([O-])CCCCOc1ccc2c(c1)CCC(=O)N2 (centres unmarked)
-- reply 27

* * *

# System: Platelet Thromboses in the Rat
# Protocol Text: Influence on platelet thromboses in the rat (electrical irritation of a vein)
# Format: in vivo
# Condition Details: male rats, five animals per dose, 20 minutes observation, vs. untreated group; dose not given
Strictly below 20% in Percentage Reduction of the Average Thrombosis Size: condition met. Otherwise: condition not met.

-- ask Identify whether the compound O=c1ccc2cc(OCCCC[S+]([O-])c3ccccc3)ccc2[nH]1 (centres unmarked) records Percentage Reduction of the Average Thrombosis Size below 20%.
-- reply condition not met

-- ask # strict comparison: is reported Percentage Reduction of the Average Thrombosis Size < 20%? input = O=c1ccc2cc(OCCCC[S+]([O-])c3ccccn3)ccc2[nH]1 (centres unmarked)
-- reply condition not met

-- ask Strictly below 20% in Percentage Reduction of the Average Thrombosis Size? O=C1CCc2cc(OCCCC[S+]([O-])c3ccc(Cl)cc3)ccc2N1 (centres unmarked)
-- reply condition met

-- ask In the record for Cc1cc(=O)[nH]c2ccc(OCCCC[S+]([O-])c3ccccn3)cc12 (centres unmarked) , is Percentage Reduction of the Average Thrombosis Size less than 20%?
-- reply condition met

-- ask State whether 20% exceeds Percentage Reduction of the Average Thrombosis Size recorded for `O=C1CCc2cccc(OCCCCSc3ccccc3)c2N1` .
-- reply condition met

-- ask API: query returns whether the compound falls strictly under 20% in Percentage Reduction of the Average Thrombosis Size. Query: O=c1ccc2cc(OCCCC[S+]([O-])c3ccc(Cl)c(Cl)c3)ccc2[nH]1 (centres unmarked)
-- reply condition met

-- ask Does this compound meet the criterion Percentage Reduction of the Average Thrombosis Size < 20%? `O=c1ccc2cc(OCCCCS(=O)(=O)c3ccccn3)ccc2[nH]1`
-- reply condition not met

-- ask Could you please tell me whether Percentage Reduction of the Average Thrombosis Size recorded for CC(C)(C)c1cc([S+]([O-])CCCCOc2ccc3[nH]c(=O)ccc3c2)cc(C(C)(C)C)c1O (centres unmarked) is less than 20%?
-- reply condition met

* * *

# Tested on: phosphodiesterase (PDE), supernatant of human blood platelets
# Protocol Text: PDE inhibition (3H-cAMP hydrolysis)
# Assay type: biochemical
# Condition Details: human blood platelet PDE, 1 μmol/liter 3H-cAMP, pH 7.4, 15 minutes, 37° C.
# Protocol: cAMP is hydrolysed to AMP by phosphodiesterase (PDE) from various sources, including blood platelets. This hydrolysis is inhibited by PDE inhibitors according to the concentration. […] The incubation was stopped by the addition of 0.5 ml of zinc sulfate (0.266 mole/liter) and 0.5 ml of barium hydroxide (0.266 mole/liter), the precipitate was centrifuged and the activity remaining in the supernatant of the unreacted ^3 H-cAMP was determined. […]
Property Name: IC50 (nM)
Use nM as the unit, but write only the number.

Would you please look over these solved cases?
[[record]]
compound = "COc1ccccc1[S+]([O-])CCCCOc1ccc2c(c1)CCC(=O)N2 (stereo not drawn) [M]"
property_name = "IC50"
reading_unit = "nM"
reported_result = 150

[[record]]
compound = "O=C1CCc2cc(OCCCC[S+]([O-])c3ccc(Cl)c(Cl)c3)ccc2N1 (stereo not drawn) [U]"
property_name = "IC50"
reading_unit = "nM"
reported_result = 270

[[record]]
compound = "O=C1CCc2cc(OCCCC[S+]([O-])c3cc(Cl)ccc3Cl)ccc2N1 (stereo not drawn) [S]"
property_name = "IC50"
reading_unit = "nM"
reported_result = 2100

[[record]]
compound = "CN(C(=O)C[S+]([O-])CCOc1ccc2[nH]c(=O)ccc2c1)C1CCCCC1 (stereo not drawn) [Z]"
property_name = "IC50"
reading_unit = "nM"
reported_result = 500

[[record]]
compound = "O=C1CCc2cc(OCCCC[S+]([O-])c3ccc4ccccc4c3)ccc2N1 (stereo not drawn) [L]"
property_name = "IC50"
reading_unit = "nM"
reported_result = 140

[[record]]
compound = "O=c1ccc2cc(OCCCC[S+]([O-])C3CCCCC3)ccc2[nH]1 (stereo not drawn) [X]"
property_name = "IC50"
reading_unit = "nM"
reported_result = 700

[[record]]
compound = "O=C1CCc2cc(OCCCC[S+]([O-])c3ccccn3)ccc2N1 (stereo not drawn) [E]"
property_name = "IC50"
reading_unit = "nM"
reported_result = 3900

[[record]]
compound = "O=c1ccc2cc(OCCCC[S+]([O-])c3ccc(-c4ccccc4)cc3)ccc2[nH]1 (stereo not drawn) [V]"
property_name = "IC50"
reading_unit = "nM"
reported_result = 120


-- ask Dear colleague, please send me the reported IC50 for Nc1c(Br)cc([S+]([O-])CCCCOc2ccc3[nH]c(=O)ccc3c2)cc1Br (stereo not drawn) [BB] when you can.
-- reply 50

-- ask Consider the compound O=C1CCc2cc(OCCCC[S+]([O-])c3ccc(C4CCCCC4)cc3)ccc2N1 (stereo not drawn) [CC] and give its recorded IC50.
-- reply 1600

-- ask Tell us which IC50 value is on record for O=C1CCc2cc(OCCCCS(=O)(=O)c3ccc(Cl)c(Cl)c3)ccc2N1 [R]
-- reply 1800

-- ask Given the compound Cc1cc(=O)[nH]c2ccc(OCCCC[S+]([O-])c3ccccc3)cc12 (stereo not drawn) [Q] , write its reported IC50.
-- reply 640

-- ask Assign IC50 to the following record: O=c1ccc2cc(OCCCC[S+]([O-])c3ccc4ccccc4n3)ccc2[nH]1 (stereo not drawn) [W]
-- reply 140

-- ask Read off the recorded IC50 for O=C1CCc2cc(OCCCC[S+]([O-])Cc3ccccc3)ccc2N1 (stereo not drawn) [H]
-- reply 1600

-- ask Annotate the compound O=C1CCc2cc(OCCCCSc3ccccn3)ccc2N1 [D] with its measured IC50.
-- reply 1600

Values compiled from patent US4329347A.
